Data origin, for the record: patent US10993437B2

Tested on: Bacillus cereus
Experiment description: Antibiotic disk susceptibility test, rings of inhibition
Format: cell-based
Stated conditions: Mueller-Hinton plate, 18-24 hrs at 37° C.; 100 μg of compound per disc, control discs 10 or 30 μg
Quantity name: B. cereus, diameter of ring of inhibition

compound="CC1(C)S[C@@H]2[C@H](NC(=O)[C@H](N)c3ccccc3)C(=O)N2[C@H]1C(=O)O [Compound 12, Ampicillin]" assay_value=13.50

I would be grateful if you could provide B. cereus, diameter of ring of inhibition for each of the following entries.
1. CN(C)[C@@H]1C(O)=C(C(N)=O)C(=O)[C@@]2(O)C(O)=C3C(=O)c4c(O)cccc4[C@@](C)(O)[C@H]3C[C@@H]12 [Compound 10, Tetracycline]
2. O=C(N[C@H](CO)[C@H](O)c1ccc([N+](=O)[O-])cc1)C(Cl)Cl [Compound 11, Chloramphenicol]

1: 20.30; 2: 26.30

Lab note: need B. cereus, diameter of ring of inhibition with Bacillus cereus for entry CCCCCCCCCCCCCC[N+](C)(C)Cc1ccccc1.[Cl-] [Compound 15] , please look it up. 14.30
